Test system: OVCAR-5 ovarian
Test: NCI-60 one-dose screen, 48 h
Conditions: 10 µM unless noted
This is part of a sample that, as a whole, favours compounds with a hit. Of some 83,000 tested, about 20% had one in any assay. Active and inactive are the calls of the source. How the source made its calls: active means growth percent below 10; inactive means the rest.
Pick one and only one: active, inactive

Solved entries (count: 6):
| compound | answer_label |
| --- | --- |
| N#CCSc1nnc2n(Cc3ccccc3)c(=O)c3c4c(sc3n12)CCCC4 | inactive |
| O=C(Nc1nn(-c2ccc(Cl)cc2Cl)nc1-c1ccccc1)c1ccccc1 | inactive |
| CC1=C(Nc2ccc(N3CCN(C)CC3)cc2)C(=O)c2cncnc2C1=O | inactive |
| COc1ccc(OC)c(C(=O)/C=C/c2cc3c(c(OC)c2OC)OCO3)c1 | inactive |
| CC(C)OC(=O)c1ccc2[nH]c(O)c(C(=Nc3ccc(N(C)C(=O)CN4CCN(C)CC4)cc3)c3ccccc3)c2c1 | active |
| Nc1nc2c([nH]1)c1[nH]c3ccccc3c1c1[nH]c3ccccc3c21 | inactive |

Field: outcome | Entry: Oc1ccc(CN2CCC(N3CCCCC3)CC2)c2cccnc12
inactive

Can you handle CCCCNC(=O)Oc1ccc(/C(=C(/CC)Cc2ccccc2)c2ccc(OCCN3CCCCCC3)cc2)cc1 next?
inactive

Another compound to check: CCOP(=O)(OCC)c1nc(-c2ccccc2)oc1NCc1cccnc1
inactive

Let us now turn to O=C(Cc1ccccc1)Nc1nc(O)c(/C=C2\C(=O)C=Cc3ccccc32)s1
inactive

Note, next up: Cn1c(=O)c2[nH]c(N/N=C/c3ccccc3Br)nc2n(C)c1=O
inactive

###

System: ACHN renal
Assay: NCI-60 one-dose screen, 48 h
Settings: 10 µM unless noted
The panel holds about 83,000 compounds, 20% with a hit somewhere; the sample as a whole holds those more often. Activity calls are given as the source filed them. Rule for the calls: active = growth percent below 10; inactive = the rest.
Mark one answer only. Choices: true = active, false = inactive

Example entries and their recorded answers appear below.
| smiles_notation | answer_label |
| --- | --- |
| CC1=Nc2cnc(Nc3ccc(OCCN4CCCCC4)cc3)nc2Nc2ccccc21 | false |
| CN(C)c1ccc(/C=C/C(=O)c2ccc(-n3cc(CN4CCN(c5cc6c(cc5F)c(=O)c(C(=O)O)cn6C5CC5)CC4)nn3)cc2)cc1 | false |
| O=C1c2c(c3c4ccccc4[nH]c3c3ccc4ccccc4c23)C(=O)N1CCN1CCCCC1 | false |
| Fc1cccc(CNc2c3ccccc3nc3ccccc23)c1F | false |
| CCOC(=O)C1=C(NC)OCC1=O | false |

Consider the record given below.
// param item: CCN(CC)CCNC(=O)c1cn2ncnc(Oc3ccc(NC(=O)Nc4ccc(Cl)c(C(F)(F)F)c4)c(F)c3)c2c1C ; yields the recorded call
true

###

System: BT-549 breast
Assay: NCI-60 one-dose screen, 48 h
Details: 10 µM unless noted
Compounds without any hit were thinned out: in the full panel of roughly 83,000, 20% have a hit. Active and inactive are the calls of the source. Rule for the calls: active = growth percent below 10; inactive = the rest.
Your response should consist of one outcome taken from true (1) (active), false (0) (inactive)

The examples below pair each entry with its known result.
| compound | answer_label |
| --- | --- |
| Fc1cc(F)cc(C(c2c[nH]c3ccccc23)c2c[nH]c3ccccc23)c1 | false (0) |
| CCOC(=O)C(=Cc1cccc(Br)c1)C(=O)OCC | false (0) |
| Cc1ccc(Cc2cnc(NC(=O)c3cc(Br)cs3)s2)cc1 | false (0) |
| Cc1oc(-c2ccc(Cl)cc2)nc1/C=C/C(=O)c1ccccc1 | false (0) |

Can you look up the reported call for COc1ccc2cc(-c3ccc(NC(C)=O)c(=O)o3)ccc2c1 for me?
false (0)

Please give the result for CC(C)c1ccc(NC(=O)Nc2ccc(NC(=O)CCCC(=O)NOCc3ccccc3)cc2)cc1 too.
false (0)

Proceed to C[C@H](NC(=O)[C@@H](C)N)[C@H](Oc1ccc2c(cnn2-c2ccc(F)cc2)c1)c1ccc2c(c1)OCCO2
false (0)

Also, C1=C(N2CCCC2)CCC1 please.
false (0)

Check CNC(=O)c1cc(Oc2ccc3nc(NC(C)=O)sc3c2)ccn1 too.
false (0)

Check CN1CCN(c2ccc(NC(=O)c3nc4ccc5[nH]ncc5c4c4c3CCCC4)cc2C(F)(F)F)CC1 too.
false (0)

Another compound: CN(C)CCNc1nc2c3cc(Cl)ccc3nn2c2ccccc12
false (0)

Thanks! And Cc1ccc(CNc2ccc(Cl)cc2NCc2ccc(C)c(O)c2)cc1O ?
false (0)
